Taken from patent US10668094B2.

- SYSTEM TESTED: human Na,K-ATPase α2β2FXYD1 (Homo sapiens (Human), UniProt P50993)
- Assay type: biochemical
// thresholds for Selectivity Ki ratio α1β1/α2β2 classes: L: < 8; M: ≥ 8 and < 9; H: ≥ 9

• CC1CN(C)CCC(O[C@@H]2[C@H](C)O[C@@H](O[C@@H]3[C@H](C)O[C@@H](O[C@H]4CC[C@@]5(C)C(CCC6C5C[C@H](O)[C@]5(C)[C@@H](C7=CC(=O)OC7)CC[C@]65O)C4)C[C@@H]3O)C[C@@H]2O)O1 (stereo partly shown) [DMe] = L
• CC1CN(C2CCC2)CCC(O[C@@H]2[C@H](C)O[C@@H](O[C@@H]3[C@H](C)O[C@@H](O[C@H]4CC[C@@]5(C)C(CCC6C5C[C@H](O)[C@]5(C)[C@@H](C7=CC(=O)OC7)CC[C@]65O)C4)C[C@@H]3O)C[C@@H]2O)O1 (stereo partly shown) [DcB] = H
• CC1CN(CCS(C)(=O)=O)CCC(O[C@@H]2C(C)O[C@@H](OC3C(C)OC(O[C@H]4CC[C@@]5(C)C(CCC6C5CC(O)[C@]5(C)[C@@H](C7=CC(=O)OC7)CC[C@]65O)C4)C[C@@H]3O)C[C@@H]2O)O1 (stereo in doubt) [DESM] = H
• CC1CN(CCS(N)(=O)=O)CCC(O[C@@H]2C(C)O[C@@H](OC3C(C)OC(O[C@H]4CC[C@@]5(C)C(CCC6C5CC(O)[C@]5(C)[C@@H](C7=CC(=O)OC7)CC[C@]65O)C4)C[C@@H]3O)C[C@@H]2O)O1 (stereo in doubt) [DESA] = H
• CC1CN(CC2CC2)CCC(O[C@@H]2[C@H](C)O[C@@H](O[C@@H]3[C@H](C)O[C@@H](O[C@H]4CC[C@@]5(C)C(CCC6C5C[C@H](O)[C@]5(C)[C@@H](C7=CC(=O)OC7)CC[C@]65O)C4)C[C@@H]3O)C[C@@H]2O)O1 (stereo partly shown) [DMcP] = H
• CC1CN(Cc2ccccc2)CCC(O[C@@H]2[C@H](C)O[C@@H](O[C@@H]3[C@H](C)O[C@@H](O[C@H]4CC[C@@]5(C)C(CCC6C5C[C@H](O)[C@]5(C)[C@@H](C7=CC(=O)OC7)CC[C@]65O)C4)C[C@@H]3O)C[C@@H]2O)O1 (stereo partly shown) [DBz] = M
• CC1CN(C2CCCCC2)CCC(O[C@@H]2C(C)O[C@@H](OC3C(C)OC(O[C@H]4CC[C@@]5(C)C(CCC6C5CC(O)[C@]5(C)[C@@H](C7=CC(=O)OC7)CC[C@]65O)C4)C[C@@H]3O)C[C@@H]2O)O1 (stereo in doubt) [DcH] = L
• CC1CN(CCC2CC2)CCC(O[C@@H]2[C@H](C)O[C@@H](O[C@@H]3[C@H](C)O[C@@H](O[C@H]4CC[C@@]5(C)C(CCC6C5C[C@H](O)[C@]5(C)[C@@H](C7=CC(=O)OC7)CC[C@]65O)C4)C[C@@H]3O)C[C@@H]2O)O1 (stereo partly shown) [DEcP] = L
• CC1CN(CS(C)(=O)=O)CCC(O[C@@H]2C(C)O[C@@H](OC3C(C)OC(O[C@H]4CC[C@@]5(C)C(CCC6C5CC(O)[C@]5(C)[C@@H](C7=CC(=O)OC7)CC[C@]65O)C4)C[C@@H]3O)C[C@@H]2O)O1 (stereo in doubt) [DMSM] = L
• CC1CN(C2CC2)CCC(O[C@@H]2[C@H](C)O[C@@H](O[C@@H]3[C@H](C)O[C@@H](O[C@H]4CC[C@@]5(C)C(CCC6C5C[C@H](O)[C@]5(C)[C@@H](C7=CC(=O)OC7)CC[C@]65O)C4)C[C@@H]3O)C[C@@H]2O)O1 (stereo partly shown) [DcP] = M
• CC1CN(C[Si](C)(C)C)CCC(OC2C(O)CC(OC3C(O)CC(OC4CCC5(C)C(CCC6C5CC(O)C5(C)C(C7=CC(=O)OC7)CCC65O)C4)OC3C)OC2C)O1 (stereo not shown) [DTMS] = L
• CCN1CCC(O[C@@H]2[C@H](C)O[C@@H](O[C@@H]3[C@H](C)O[C@@H](O[C@H]4CC[C@@]5(C)C(CCC6C5C[C@H](O)[C@]5(C)[C@@H](C7=CC(=O)OC7)CC[C@]65O)C4)C[C@@H]3O)C[C@@H]2O)OC(C)C1 (stereo partly shown) [DEt] = M
